These entries and their values trace back to ChEMBL document CHEMBL3259717.

test: Selectivity index, ratio of LD50 for human HepG2 cells to MIC90 for replicating form of Mycobacterium tuberculosis mc'2 6220; format: toxicity, cell-based; conditions: read-out: Selectivity Index
selectivity ratio by entry:
measure: selectivity ratio

>  <compound>
CCCc1cc(=O)oc2cc(N3CCN(C(=O)C(C)CC)CC3)c3c(c12)OC(C)(C)C=C3 (stereo not drawn)

>  <reading>
< 1

$$$$
>  <compound>
CCCc1cc(=O)oc2c1c(OCCN1CCCC1)cc1oc([N+](=O)[O-])cc12

>  <reading>
> 5

$$$$
>  <compound>
O=c1oc2c3c(cc(OCCN4CCOCC4)c2c2c1CCCC2)O[C@H]([N+](=O)[O-])[C@H]3O (racemic)

>  <reading>
> 0.3

$$$$
>  <compound>
CC1(C)CCc2c3c(c4oc(=O)c5c(c4c2O1)CCCC5)[C@H](O)[C@@H]([N+](=O)[O-])O3

>  <reading>
64

$$$$
>  <compound>
Cc1c(F)c(=O)oc2c1c1c(c3oc([N+](=O)[O-])cc32)CCC(C)(C)O1

>  <reading>
> 64

$$$$
>  <compound>
CCCc1cc(=O)oc2c1c1c(c3oc([N+](=O)[O-])cc32)C=CC(c2ccccc2)O1 (stereo not drawn)

>  <reading>
0.1

$$$$
>  <compound>
O=C(OCCOc1cc2c(c3oc(=O)c4c(c13)CCCC4)[C@H](O)[C@@H]([N+](=O)[O-])O2)c1cnccn1 (racemic)

>  <reading>
> 0.3

$$$$
>  <compound>
CC1(C)C=Cc2c(c3c(CN4CCSCC4)cc(=O)oc3c3cc([N+](=O)[O-])oc23)O1

>  <reading>
> 5

$$$$

* * *

test: Cytotoxicity against human HepG2 cells assessed as decrease in ATP signal after 2 days by CellTiter-Glo assay; type: cell-based; conditions: read-out: LD50
measure: log10 CC50 at 48 h (log10 of the value in µg/mL)

>  <molecule>
CCCc1cc(=O)oc2c1c(OC)cc1oc([N+](=O)[O-])cc12

>  <log10 CC50 at 48 h>
-0.52

$$$$
>  <molecule>
CCCc1cc(=O)oc2c1c(OCCN1CCOCC1)cc1[nH]c([N+](=O)[O-])cc12

>  <log10 CC50 at 48 h>
1.40

$$$$
>  <molecule>
CC1(C)CCc2c3c(c4oc(=O)c5c(c4c2O1)CCC5)[C@H](O)[C@@H]([N+](=O)[O-])O3

>  <log10 CC50 at 48 h>
1.40

$$$$
>  <molecule>
CC1(C)C=Cc2c(c3c(CN4CCOCC4)cc(=O)oc3c3cc([N+](=O)[O-])oc23)O1

>  <log10 CC50 at 48 h>
0.00

$$$$
>  <molecule>
Cc1c(F)c(=O)oc2c3c(c4c(c12)OC(C)(C)CC4)O[C@H]([N+](=O)[O-])[C@H]3O (relative stereo)

>  <log10 CC50 at 48 h>
1.11

$$$$
>  <molecule>
O=[N+]([O-])C1Cc2ccccc2O1 (stereo not drawn)

>  <log10 CC50 at 48 h>
0.48

$$$$
>  <molecule>
CCCc1cc(=O)oc2cc(N3CCN(C(=O)C(C)CC)CC3)c3c(c12)OC(C)(C)C=C3 (stereo not drawn)

>  <log10 CC50 at 48 h>
1.34

$$$$
>  <molecule>
CCCc1cc(=O)oc2c1c1c(c3oc([N+](=O)[O-])cc32)C=CC(C)(C)O1

>  <log10 CC50 at 48 h>
0.48

$$$$

* * *

test: Selectivity index, ratio of LD50 for human HepG2 cells to MIC90 for replicating form of Mycobacterium tuberculosis mc'2 6220; assay type: toxicity, cell-based; conditions: read-out: Selectivity Index

>  <compound-structure>
O=[N+]([O-])c1cc2ccccc2o1

>  <selectivity ratio>
16

$$$$
>  <compound-structure>
CC1(C)CCc2c3c(c4oc(=O)c5c(c4c2O1)CCC5)[C@H](O)[C@@H]([N+](=O)[O-])O3

>  <selectivity ratio>
128

$$$$
>  <compound-structure>
CCCc1cc(=O)oc2c1c(OCCN1CCOCC1)cc1oc([N+](=O)[O-])c(C(C)C)c12

>  <selectivity ratio>
< 1

$$$$
>  <compound-structure>
Cc1c(F)c(=O)oc2c1c1c(c3oc([N+](=O)[O-])cc32)C=CC(C)(C)O1

>  <selectivity ratio>
> 510

$$$$
>  <compound-structure>
CCCc1cc(=O)oc2c1c(OCCN1CCOCC1)cc1oc([N+](=O)[O-])c(COC(C)=O)c12

>  <selectivity ratio>
< 0.3

$$$$
>  <compound-structure>
CCCc1cc(=O)oc2c1c(OCCN1CCOCC1)cc1[nH]c([N+](=O)[O-])cc12

>  <selectivity ratio>
< 0.5

$$$$
>  <compound-structure>
CCCc1cc(=O)oc2c1c(OC)cc1oc([N+](=O)[O-])cc12

>  <selectivity ratio>
> 2

$$$$

* * *

MIC90 by entry:
system: Mycobacterium tuberculosis; assay: Antibacterial activity against replicating form of wild type Mycobacterium tuberculosis H37Rv assessed as growth inhibition after 7 days by high-throughput screening assay; assay type: functional; details: 168 h

>  <compound-structure>
CCc1c(F)c(=O)oc2c1c1c(c3oc([N+](=O)[O-])cc32)C=CC(C)(C)O1

>  <value-units>
µg/mL

>  <MIC90>
0.6

$$$$
>  <compound-structure>
CCCc1cc(=O)oc2c3c(cc(OCCN4CCOCC4)c12)O[C@@H]([N+](=O)[O-])[C@@H]3O

>  <value-units>
µg/mL

>  <MIC90>
0.08

$$$$
>  <compound-structure>
CCCc1cc(=O)oc2c1c(OCc1ccc(F)cc1)cc1oc([N+](=O)[O-])cc12

>  <value-units>
µg/mL

>  <MIC90>
0.6

$$$$
>  <compound-structure>
Cc1cc(=O)oc2c1c1c(c3oc([N+](=O)[O-])cc32)C=CC(C)(C)O1

>  <value-units>
µg/mL

>  <MIC90>
0.08

$$$$

* * *

system: Mycobacterium tuberculosis; test: Antibacterial activity against non-replicating form of Mycobacterium tuberculosis MC2 6220 assessed as growth inhibition after 3 days by high-throughput screening assay; type: functional; details: MC2 6220, 72 h

>  <compound>
CCCc1cc(=O)oc2cc(OCC(=O)NCCc3ccccc3)c3c(c12)OC(C)(C)C=C3

>  <target>
Mycobacterium tuberculosis

>  <value-units>
mg/L

>  <comparison-operator>
>

>  <MIC90>
22

$$$$
>  <compound>
CCCc1cc(=O)oc2c1c1c(c3occc32)C=CC(C)(C)O1

>  <target>
Mycobacterium tuberculosis

>  <value-units>
mg/L

>  <comparison-operator>
>

>  <MIC90>
100

$$$$
>  <compound>
CCCc1cc(=O)oc2c3c(c4c(c12)OC(C)(C)C=C4)OC(O)C3=O (centres undefined)

>  <target>
Mycobacterium tuberculosis

>  <value-units>
mg/L

>  <comparison-operator>
=

>  <MIC90>
17

$$$$
>  <compound>
CCCc1cc(=O)oc2cc(N3CCN(C(=O)Nc4ccc(C(F)(F)F)cc4)CC3)c3c(c12)OC(C)(C)C=C3

>  <target>
Mycobacterium tuberculosis

>  <value-units>
mg/L

>  <comparison-operator>
>

>  <MIC90>
27

$$$$
>  <compound>
CCCc1cc(=O)oc2c(C(=O)CC)c(N3CCN(Cc4ccc(F)cc4)CC3)c3c(c12)OC(C)(C)C=C3

>  <target>
Mycobacterium tuberculosis

>  <value-units>
mg/L

>  <comparison-operator>
=

>  <MIC90>
26

$$$$
>  <compound>
CCCc1cc(=O)oc2c1c1c(c3oc([N+](=O)[O-])cc32)C=CC(c2ccccc2)O1 (centres undefined)

>  <target>
Mycobacterium tuberculosis

>  <value-units>
mg/L

>  <comparison-operator>
=

>  <MIC90>
6

$$$$
>  <compound>
CCCc1c(F)c(=O)oc2c1c1c(c3oc([N+](=O)[O-])cc32)C=CC(C)(C)O1

>  <target>
Mycobacterium tuberculosis

>  <value-units>
mg/L

>  <comparison-operator>
=

>  <MIC90>
19

$$$$
>  <compound>
O=c1oc2c3c(cc(OCCN4CCOCC4)c2c2c1CCCC2)O[C@H]([N+](=O)[O-])[C@H]3O (racemic)

>  <target>
Mycobacterium tuberculosis

>  <value-units>
mg/L

>  <comparison-operator>
<

>  <MIC90>
1

$$$$
>  <compound>
CCCc1cc(=O)oc2cc(C#Cc3ccccn3)c3c(c12)OC(C)(C)C=C3

>  <target>
Mycobacterium tuberculosis

>  <value-units>
mg/L

>  <comparison-operator>
>

>  <MIC90>
19

$$$$

* * *

system: Mycobacterium tuberculosis; assay: Antibacterial activity against non-replicating form of Mycobacterium tuberculosis MC2 6220 assessed as growth inhibition after 3 days by high-throughput screening assay; format: functional; conditions: MC2 6220, 72 h

>  <compound>
CC1(C)C=Cc2c(c3c(CN4CCSCC4)cc(=O)oc3c3cc([N+](=O)[O-])oc23)O1

>  <target>
Mycobacterium tuberculosis

>  <MIC90>
< 0.3 µg/mL

$$$$
>  <compound>
CCCc1cc(=O)oc2c3c(cc(OCCN4CCOCC4)c12)O[C@H]([N+](=O)[O-])[C@H]3C(C)C (racemic)

>  <target>
Mycobacterium tuberculosis

>  <MIC90>
> 22 µg/mL

$$$$
>  <compound>
CCCc1cc(=O)oc2cc(NC(=O)c3cnccn3)c3c(c12)OC(C)(C)C=C3

>  <target>
Mycobacterium tuberculosis

>  <MIC90>
> 20 µg/mL

$$$$
>  <compound>
Cc1c(F)c(=O)oc2c1c1c(c3oc([N+](=O)[O-])cc32)CCC(C)(C)O1

>  <target>
Mycobacterium tuberculosis

>  <MIC90>
2 µg/mL

$$$$
>  <compound>
CCCc1cc(=O)oc2cc(C#Cc3ccc(F)cc3)c3c(c12)OC(C)(C)C=C3

>  <target>
Mycobacterium tuberculosis

>  <MIC90>
> 19 µg/mL

$$$$
>  <compound>
CCCc1cc(=O)oc2cc(N3CCN(C(=O)NC4CCCCC4)CC3)c3c(c12)OC(C)(C)C=C3

>  <target>
Mycobacterium tuberculosis

>  <MIC90>
> 24 µg/mL

$$$$
>  <compound>
CCCc1cc(=O)oc2cc(NC(=O)Nc3ccc(F)cc3)c3c(c12)OC(C)(C)C=C3

>  <target>
Mycobacterium tuberculosis

>  <MIC90>
> 21 µg/mL

$$$$
>  <compound>
CCCc1cc(=O)oc2c(C(=O)N3CCOCC3)c(O)c3c(c12)OC(C)(C)C=C3

>  <target>
Mycobacterium tuberculosis

>  <MIC90>
> 20 µg/mL

$$$$
>  <compound>
CCCc1cc(=O)oc2c1c(OCCN1CCCC1)cc1oc([N+](=O)[O-])cc12

>  <target>
Mycobacterium tuberculosis

>  <MIC90>
< 0.2 µg/mL

$$$$
>  <compound>
Cc1c(F)c(=O)oc2c1c1c(c3oc([N+](=O)[O-])cc32)C=CC(C)(C)O1

>  <target>
Mycobacterium tuberculosis

>  <MIC90>
0.2 µg/mL

$$$$
>  <compound>
CCCc1cc(=O)oc2cc(OC)c3c(c12)OC(C)(C)C=C3

>  <target>
Mycobacterium tuberculosis

>  <MIC90>
> 15 µg/mL

$$$$
>  <compound>
CCCc1cc(=O)oc2cc(OCCN3CCCCC3)c3c(c12)OC(C)(C)C=C3

>  <target>
Mycobacterium tuberculosis

>  <MIC90>
> 20 µg/mL

$$$$
>  <compound>
CCCc1cc(=O)oc2cc(OCCN3CCCC3)c3c(c12)OC(C)(C)C=C3

>  <target>
Mycobacterium tuberculosis

>  <MIC90>
> 19 µg/mL

$$$$
>  <compound>
CC1(C)CCc2c3c(c4oc(=O)c5c(c4c2O1)CCC5)[C@H](O)[C@@H]([N+](=O)[O-])O3

>  <target>
Mycobacterium tuberculosis

>  <MIC90>
0.4 µg/mL

$$$$
>  <compound>
CCCc1cc(=O)oc2c(C(=O)CC)c(N3CCN(c4ccccn4)CC3)c3c(c12)OC(C)(C)C=C3

>  <target>
Mycobacterium tuberculosis

>  <MIC90>
> 24 µg/mL

$$$$
>  <compound>
CCCc1cc(=O)oc2cc(N3CCN(C(=O)Nc4ccc(F)cc4)CC3)c3c(c12)OC(C)(C)C=C3

>  <target>
Mycobacterium tuberculosis

>  <MIC90>
> 25 µg/mL

$$$$
>  <compound>
CCCc1cc(=O)oc2cc(OCC=C(C)C)c3c(c12)OC(C)(C)C=C3

>  <target>
Mycobacterium tuberculosis

>  <MIC90>
> 18 µg/mL

$$$$
>  <compound>
CCCc1cc(=O)oc2cc(OCCc3cccs3)c3c(c12)OC(C)(C)C=C3

>  <target>
Mycobacterium tuberculosis

>  <MIC90>
> 20 µg/mL

$$$$
>  <compound>
CCCc1cc(=O)oc2cc(OC3CCCC3)c3c(c12)OC(C)(C)C=C3

>  <target>
Mycobacterium tuberculosis

>  <MIC90>
> 23 µg/mL

$$$$
